meta.source: paper PMC3936774

Biological target: Sa Hfq Q31W (Staphylococcus aureus, UniProt A0A0H3JV59 1-77, Q31W)
Test: fluorescence polarization
Experimental endpoint: pKd
Scale: pKd equals -log10([C]), with [C] in mol/L.

Kindly note the recorded pKd for UUUUUU (ssRNA) [U6 (fluorescein)] , which is 6.94
